target: Histone deacetylase 1 (Homo sapiens, UniProt Q13547); test: Inhibition of recombinant HDAC1 (unknown origin) incubated for 10 mins using Boc-Lys(acetyl)-AMC fluorogenic substrate by homogeneous fluorescence release assay
Sequence (Q13547 whole entry): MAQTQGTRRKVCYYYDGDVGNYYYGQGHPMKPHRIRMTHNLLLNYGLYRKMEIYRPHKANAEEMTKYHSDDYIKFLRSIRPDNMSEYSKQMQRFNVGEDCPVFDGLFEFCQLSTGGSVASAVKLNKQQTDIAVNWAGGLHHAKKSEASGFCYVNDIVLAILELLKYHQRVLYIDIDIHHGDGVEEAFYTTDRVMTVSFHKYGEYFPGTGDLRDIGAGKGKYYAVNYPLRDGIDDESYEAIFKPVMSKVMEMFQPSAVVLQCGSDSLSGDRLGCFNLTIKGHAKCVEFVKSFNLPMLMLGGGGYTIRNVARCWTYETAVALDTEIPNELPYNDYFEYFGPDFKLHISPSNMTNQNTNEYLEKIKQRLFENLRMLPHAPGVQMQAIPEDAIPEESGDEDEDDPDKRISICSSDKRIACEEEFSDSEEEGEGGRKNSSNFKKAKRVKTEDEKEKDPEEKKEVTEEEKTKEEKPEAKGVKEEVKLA
Kindly apply the following: condition met if IC50 is less than 800 nM, condition not met in every other case.

These recorded examples may help you get a feel for the data.
>>> answerlabel("O=C(CCCCCCc1nc(-c2ccc(C(F)(F)F)cc2)no1)NO")
"condition not met"
>>> answerlabel("Nc1ccccc1NC(=O)CCCCCCc1nc(-c2ccccc2)no1")
"condition met"
>>> answerlabel("Nc1ccccc1NC(=O)CCCCCCc1nc(-c2cccs2)no1")
"condition met"

Data request: # check: IC50 < 800 nM for `O=C(CCCCCCc1nc(-c2ccc(Cl)cc2)no1)NO`
Data returned: condition met

Data request: is_below(IC50, 800 nM) for `Nc1ccccc1NC(=O)CCCCCCc1nc(-c2cccnc2)no1` ?
Data returned: condition not met
